Target: T1, MCL-1 (mouse, residues 152-308) (mouse)
T1 construct: remnant of thrombin cleavage at the N-terminus of MCL-1; MCL-1, mouse, residues 152-308, UniProt P97287; source: E. coli C41 pLysS, purified (Ni2+ agarose, thrombin cleavage, ion exchange, Superdex G75 gel filtration); not shown: His6, N-terminal, cleaved
T1 chain: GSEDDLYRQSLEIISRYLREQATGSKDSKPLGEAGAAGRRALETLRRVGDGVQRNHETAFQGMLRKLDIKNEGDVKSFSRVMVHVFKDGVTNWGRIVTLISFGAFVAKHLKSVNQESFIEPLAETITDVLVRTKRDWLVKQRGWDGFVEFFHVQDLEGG
Test: fluorescence dissociation kinetics with competitor; dissociation; preformed complex of TAMRA-labelled peptide and partner protein mixed with excess unlabeled PUMA peptide as competitor; stopped-flow or Cary Eclipse spectrophotometer; 25 °C; 50 mM sodium phosphate, 0.05% (v/v) Tween 20, pH 7.0
Conditions: both partners purified
Where no end group is shown, it is not given here. The star is where a group is joined. TAMRA = 5-carboxytetramethylrhodamine, CN(C)c1ccc2c(-c3ccc(C(=O)*)cc3C(=O)[O-])c3ccc(=[N+](C)C)cc-3oc2c1
# reported koff; entries follow
All answers are understood in s⁻¹, so give the number only.

Solved cases below.
Binder	koff (s⁻¹)
{TAMRA}-SESQEEIAHNIARHLAQIGDEMDHNIQPTLVRQLA (peptide, UniProt P70444 76-110, looked up, BID, mouse, residues 76-110, UniProt P70444; source: synthetic peptide (Biomatik)) [BID I83A peptide, TAMRA-labelled]	0.014
{TAMRA}-SESQEAIIHNIARHLAQIGDEMDHNIQPTLVRQLA (peptide, UniProt P70444 76-110, looked up, BID, mouse, residues 76-110, UniProt P70444; source: synthetic peptide (Biomatik)) [BID E81A peptide, TAMRA-labelled]	0.0036

What value of koff has been recorded for this entry: {TAMRA}-SESQEEAIHNIARHLAQIGDEMDHNIQPTLVRQLA (peptide, UniProt P70444 76-110, looked up, BID, mouse, residues 76-110, UniProt P70444; source: synthetic peptide (Biomatik)) [BID I82A peptide, TAMRA-labelled]
0.0062

What value of koff has been recorded for this entry: {TAMRA}-SESQEEIIHNIARHLAQIGDEMDANIQPTLVRQLA (peptide, UniProt P70444 76-110, looked up, BID, mouse, residues 76-110, UniProt P70444; source: synthetic peptide (Biomatik)) [BID H99A peptide, TAMRA-labelled]
0.001

What value of koff has been recorded for this entry: {TAMRA}-SESQEGIIHNIARHLAQIGDEMDHNIQPTLVRQLA (peptide, UniProt P70444 76-110, looked up, BID, mouse, residues 76-110, UniProt P70444; source: synthetic peptide (Biomatik)) [BID E81G peptide, TAMRA-labelled]
0.008
